From: patent US20250288584A1

Tested on: 6 Hz (44 mA) psychomotor seizures
assay.overview: 6 Hz psychomotor seizure test, 44 mA (alone, combination with LEV, isobolographic study)
Assay type: in vivo, mice
test.context: Mus musculus, sc, at TPE, compound alone; read-out: ED50 (95% CI) 44 mA
// returns 0 unless ED50 is strictly below 10 mg/kg, in which case 1

Past entries and their recorded results:
>>> category_label("FC(F)(F)c1c(N2CCC(c3ccccc3)CC2)ccn2c(CC3CC3)nnc12")
1
>>> category_label("FC(F)(F)Cc1nnc2c(Cl)c(N3CCC(F)(c4ccccc4)CC3)ccn12")
0
>>> category_label("CCCCn1ccc(N2CCC(c3ccccc3)CC2)c(Cl)c1=O")
0

Here is the next item to consider.
Prompt: Answer whether the compound N[C@@]1(C(=O)O)CS(=O)(=O)[C@H]2[C@H](C(=O)O)[C@H]21 [LY-404039, reference compound] has ED50 strictly less than 10 mg/kg
Response: 0
